Cited source: patent US20240190856A1

TESTED ON: MC4R (melanocortin-4 receptor) (Homo sapiens)
Construct: expressed in transfected cells
Sequence (P32245 whole entry, species assumed): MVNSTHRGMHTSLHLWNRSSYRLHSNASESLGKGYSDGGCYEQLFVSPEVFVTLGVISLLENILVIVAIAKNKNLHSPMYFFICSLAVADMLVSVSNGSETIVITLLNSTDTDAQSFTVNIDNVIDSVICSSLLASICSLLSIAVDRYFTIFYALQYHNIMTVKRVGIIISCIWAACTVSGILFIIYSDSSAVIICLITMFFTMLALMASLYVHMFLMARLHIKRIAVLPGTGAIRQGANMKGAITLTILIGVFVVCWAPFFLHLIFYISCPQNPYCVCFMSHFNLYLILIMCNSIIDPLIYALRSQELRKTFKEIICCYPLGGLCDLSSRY
EXPERIMENTAL DETAILS: Luciferase assay (CRE-LUC, HEK MC4R-Luc cells)
Format: cell-based
MEASUREMENT CONTEXT: 5 h incubation, concentration inducing 50% of each agonist's own maximum luminescence
Where a name gives a salt, the structure may show the parent alone.
Reported EC50 by item:
Give just the number in nM; leave the unit off.

{"MOLECULE": "CC(C)C(=O)N([C@H]1C[C@@H](C(=O)N2CCOCC2)N(C(=O)[C@@H]2CN(C(C)(C)C)C[C@H]2c2ccc(F)cc2F)C1)[C@H]1CC[C@@H](C)CC1 [Example 2, hydrochloride]", "EC50 / nM": 2.47}

Exercise: Record request: EC50 value, item CC(C)(C)C(=O)N([C@H]1C[C@@H](C(=O)N2CCOCC2)N(C(=O)[C@@H]2CN(C(C)(C)C)C[C@H]2c2ccc(F)cc2F)C1)[C@H]1CC[C@@H](C)CC1 [Example 1, hydrochloride]
Key: 0.629

Exercise: Next up: CC(=O)N(C1CCC(C)(C)CC1)[C@H]1C[C@@H](C(=O)N2CCOCC2)N(C(=O)[C@@H]2CN(C(C)(C)C)C[C@H]2c2ccc(Cl)cc2)C1 [Comparative Example 2 (A96), hydrochloride, reference compound]
Key: 5.61

Exercise: Next up: CC(=O)N(C1CCC(C)(C)CC1)[C@H]1C[C@@H](C(=O)N2CCOCC2)N(C(=O)[C@@H]2CN(C(C)(C)C)C[C@H]2c2ccc(F)cc2F)C1 [Comparative Example 1 (A95), hydrochloride, reference compound]
Key: 14.7

Exercise: Next up: CC(C)C(=O)N([C@H]1C[C@@H](C(=O)N2CCOCC2)N(C(=O)[C@@H]2CN(C(C)(C)C)C[C@H]2c2ccc(Cl)cc2F)C1)[C@H]1CC[C@@H](C)CC1 [Example 3, hydrochloride]
Key: 0.922
